B1: POMT2 (parent)
chain: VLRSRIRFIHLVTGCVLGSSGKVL

Variants of: B1
Experiment Notes: protein stability index of a GFP-peptide fusion (GPS, HEK-293T) (PSI 1-6); higher = more stable;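 also: lentivirally expressed fusions sorted by FACS into six bins by GFP to DsRed ratio, PSI derived from sequencing read proportions per bin multiplied by bin number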
Assay Setup: c terminus: a fixed tail appended
Binary classification by protein stability index, with 3 as an inclusive lower bound for True; all other cases are False.

Reference set, count: 2
V16N ... True
G18N ... True

Check this variant for protein stability index at or above 3: R3T
False

Determine whether this variant has protein stability index no lower than 3: R5E
False

Please indicate if the recorded protein stability index for T13E meets or exceeds 3.
False

Please tell me: is the variant G21H at or over 3 in terms of protein stability index?
True

Quick check: does R5N have protein stability index greater than or equal to 3?
False

protein stability index >= 3 for K22P ?
False

Is the recorded value of protein stability index equal to or greater than 3 for this variant? V12G
False

Quick check: does L2E have protein stability index greater than or equal to 3?
False
